TARGET_OR_TEST_SYSTEM: T1, human MSLN-R3 protein (human, UniProt Q13421 487-598)
T1 construct: also called hMSLN-R3
T1 sequence (Q13421 495-606, form in doubt): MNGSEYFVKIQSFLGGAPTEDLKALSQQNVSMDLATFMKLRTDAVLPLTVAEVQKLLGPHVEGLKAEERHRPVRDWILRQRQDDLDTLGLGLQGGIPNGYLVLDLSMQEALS
EXPERIMENT_DESCRIPTION: ELISA on coated antigen, antibody 0.1 nM
QUANTITY_MEASURED: OD450 (OD450)
Write down the numeric answer in OD450 and omit the unit.

-- ask Endpoint output: OD450 of F7.44.20-H1 (scFv, not shown: small tags and cut ends, also called S009-F7.44.20 humanized antibody VH1 + VL1) scFv: EVQLVQSGAEVKKPGASVKVSCKASGYTFTDYNMDWVRQAPGQGLEWMGDINPSTGGTIYNQKFNGRVTMTEDKSTSTVYMELSSLRSEDTAVYYCARRRIGTGYFDVWGQGTTVTVSSGGGGSGGGGSGGGGSEIVLTQSPDFQSVTPKEKVTITCSASSSVISSYLSWYQQKPDQSPKLLIYRTSNLASGVPSRFSGSGSGTDFTLTINSLEAEDAATYYCHQWSSFPYTFGGGTKVEIK . Value?
-- reply 0.16
